Data origin: ChEMBL document CHEMBL3414445

# collection of IC50 values tested on Acetylcholinesterase (Electrophorus electricus, UniProt O42275)
# Sequence (O42275 whole entry): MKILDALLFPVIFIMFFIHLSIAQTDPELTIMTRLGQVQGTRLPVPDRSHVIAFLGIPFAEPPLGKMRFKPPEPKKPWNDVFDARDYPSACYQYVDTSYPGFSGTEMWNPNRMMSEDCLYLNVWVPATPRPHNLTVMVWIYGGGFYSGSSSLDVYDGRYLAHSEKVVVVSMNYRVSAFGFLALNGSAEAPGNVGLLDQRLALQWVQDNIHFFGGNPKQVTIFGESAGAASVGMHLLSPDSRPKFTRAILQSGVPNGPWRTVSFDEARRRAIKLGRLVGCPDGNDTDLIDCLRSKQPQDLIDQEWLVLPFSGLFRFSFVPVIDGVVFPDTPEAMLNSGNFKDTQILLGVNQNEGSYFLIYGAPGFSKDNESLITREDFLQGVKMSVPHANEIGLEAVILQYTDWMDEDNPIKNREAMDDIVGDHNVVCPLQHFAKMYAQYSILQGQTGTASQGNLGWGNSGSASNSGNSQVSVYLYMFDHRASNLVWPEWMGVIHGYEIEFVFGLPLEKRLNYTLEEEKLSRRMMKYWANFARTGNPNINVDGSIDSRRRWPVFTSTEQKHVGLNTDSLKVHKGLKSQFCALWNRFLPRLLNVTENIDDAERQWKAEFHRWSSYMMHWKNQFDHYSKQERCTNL
Please give a number only; it is taken to be in µM.

Answered cases to consult:
[[record]]
smiles_structure = "CN(C)CCOc1ccc(/C=C2\\Oc3cc(O)ccc3C2=O)cc1"
observed_result = 5.52

[[record]]
smiles_structure = "COc1ccc2c(c1)O/C(=C\\c1ccc(OCCN3CCCC3)cc1)C2=O"
observed_result = 0.545

[[record]]
smiles_structure = "COc1ccc2c(c1)O/C(=C\\c1ccc(OCCN(C)C)cc1)C2=O"
observed_result = 1.97


Exercise: Give recorded IC50 with Acetylcholinesterase (Electrophorus electricus, UniProt O42275) for the following compound: `COc1ccc(/C=C2\Oc3cc(OCCCN(C)C)ccc3C2=O)cc1`
Solution: 15.7

Exercise: Give recorded IC50 with Acetylcholinesterase (Electrophorus electricus, UniProt O42275) for the following compound: `COc1cc(/C=C2\Oc3cc(OCCCN(C)C)ccc3C2=O)cc(OC)c1OC`
Solution: 9.88

Exercise: Give recorded IC50 with Acetylcholinesterase (Electrophorus electricus, UniProt O42275) for the following compound: `COc1ccc2c(c1)O/C(=C\c1ccc(N(C)C)cc1)C2=O`
Solution: 50.3

Exercise: Give recorded IC50 with Acetylcholinesterase (Electrophorus electricus, UniProt O42275) for the following compound: `O=C1/C(=C/c2ccc(OCCN3CCCC3)c(Cl)c2)Oc2cc(O)ccc21`
Solution: 0.289

Exercise: Give recorded IC50 with Acetylcholinesterase (Electrophorus electricus, UniProt O42275) for the following compound: `O=C1/C(=C/c2ccc(OCCN3CCCC3)cc2Cl)Oc2cc(O)ccc21`
Solution: 0.878

Exercise: Give recorded IC50 with Acetylcholinesterase (Electrophorus electricus, UniProt O42275) for the following compound: `COc1ccc2c(c1)O/C(=C\c1ccc(OCCN(C)C)c(Cl)c1)C2=O`
Solution: 1.33

Exercise: Give recorded IC50 with Acetylcholinesterase (Electrophorus electricus, UniProt O42275) for the following compound: `CN(C)CCCOc1ccc(/C=C2\Oc3cc(O)ccc3C2=O)cc1`
Solution: 7.9

====

Catalogue of molecules with associated IC50
Assayed target: Cholinesterase (Equus caballus, UniProt P81908)
Sequence (P81908 whole entry): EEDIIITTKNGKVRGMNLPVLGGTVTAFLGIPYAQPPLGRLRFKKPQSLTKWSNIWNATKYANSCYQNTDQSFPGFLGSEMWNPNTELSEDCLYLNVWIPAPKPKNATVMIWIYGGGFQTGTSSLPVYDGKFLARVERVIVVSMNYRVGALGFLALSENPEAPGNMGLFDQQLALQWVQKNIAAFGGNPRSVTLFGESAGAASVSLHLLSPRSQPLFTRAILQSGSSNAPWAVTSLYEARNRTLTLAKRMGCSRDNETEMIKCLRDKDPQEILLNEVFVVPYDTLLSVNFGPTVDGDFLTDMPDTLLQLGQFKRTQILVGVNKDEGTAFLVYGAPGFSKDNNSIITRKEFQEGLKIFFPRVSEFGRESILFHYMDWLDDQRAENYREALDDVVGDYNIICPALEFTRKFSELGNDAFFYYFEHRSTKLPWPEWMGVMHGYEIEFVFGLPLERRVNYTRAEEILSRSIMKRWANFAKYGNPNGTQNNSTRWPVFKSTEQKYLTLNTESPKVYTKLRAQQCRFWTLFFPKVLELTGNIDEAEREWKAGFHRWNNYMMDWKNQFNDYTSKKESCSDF
Protocol details: Inhibition of equine serum butyrylcholine esterase incubated for 15 mins using S-butyrylthiocholine chloride substrate by colorimetric Ellman's method
Please give a number only; it is taken to be in µM.

Answered cases to consult:
[[record]]
smiles_structure = "COc1ccc2c(c1)O/C(=C\\c1ccc(OCCN3CCCCC3)c(Cl)c1)C2=O"
assayed_target = "Cholinesterase (Equus caballus, UniProt P81908)"
readout_kind = "IC50"
observed_result = 7.9

[[record]]
smiles_structure = "COc1ccc2c(c1)O/C(=C\\c1ccc(OCCN(C)C)cc1)C2=O"
assayed_target = "Cholinesterase (Equus caballus, UniProt P81908)"
readout_kind = "IC50"
observed_result = 25.9

[[record]]
smiles_structure = "COc1ccc2c(c1)O/C(=C\\c1ccc(OCCCN(C)C)cc1Cl)C2=O"
assayed_target = "Cholinesterase (Equus caballus, UniProt P81908)"
readout_kind = "IC50"
observed_result = 34.1

[[record]]
smiles_structure = "COc1ccc2c(c1)O/C(=C\\c1ccc(OCCN3CCCCC3)cc1Cl)C2=O"
assayed_target = "Cholinesterase (Equus caballus, UniProt P81908)"
readout_kind = "IC50"
observed_result = 11.4

[[record]]
smiles_structure = "COc1ccc(/C=C2\\Oc3cc(OCCN4CCCCC4)ccc3C2=O)cc1"
assayed_target = "Cholinesterase (Equus caballus, UniProt P81908)"
readout_kind = "IC50"
observed_result = 6.87


Exercise: Could you tell me which IC50 is on file for `O=C1/C(=C/c2ccc(OCCN3CCCC3)c(Cl)c2)Oc2cc(O)ccc21` ?
Solution: 9.92

Exercise: Could you tell me which IC50 is on file for `COc1ccc2c(c1)O/C(=C\c1ccc(OCCCN(C)C)cc1)C2=O` ?
Solution: 30.4
